Provenance of the data: patent US8859541B2

- Target desc: XIAP BIR3 (Homo sapiens, UniProt P98170)
- Construct: covering amino acids 241 to 356; XIAP BIR3
- Sequence (P98170 241-356): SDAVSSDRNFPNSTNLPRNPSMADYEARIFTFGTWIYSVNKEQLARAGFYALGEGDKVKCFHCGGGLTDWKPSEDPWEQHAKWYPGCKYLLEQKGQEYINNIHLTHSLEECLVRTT
- Assay info: XIAP BIR3 binding assay (DELFIA), displacement of SMAC peptide
- Assay context: GST-fusion BIR3 domain (aa 241 to 356) 10 nM, SMAC peptide 10 nM; activity of the (S)-isomers
pIC50: −log10 of the molar value.
Property: pIC50

A: CNC(C)C(=O)Nc1ccc(-c2c(C)nn(C)c2C)c(C#Cc2ccc3cnccc3c2)n1 (centres unmarked) [Example 164]
B: CC(N)C(=O)Nc1ccc(-c2ccccc2F)c(C#Cc2ccccc2)n1 (centres unmarked) [Example 102]
C: CNC(C)C(=O)Nc1ccc(-c2c(C)nc3ccccn23)c(C#Cc2nn(C)c3ccccc23)n1 (centres unmarked) [Example 61]
Prompt: // ascending sort on recorded pIC50 Provide the labels, sequenced as the question asks.
Completion: B, A, C
(B: 5.70, A: 6.47, C: 6.73)

1: CNC(C)C(=O)Nc1ccc(-c2cccc(C(F)(F)F)c2OC)c(C#Cc2ccccc2)n1 (centres unmarked) [Example 140]
2: CC(N)C(=O)Nc1cccc(C#Cc2ccc(F)cc2)n1 (centres unmarked) [Example 219]
Prompt: I'm curious whether 1 or 2 has the smaller pIC50 number. Which is it? Please reply using the label of the selected record.
Completion: 1
(1: 5.70, 2: 6.44)

a: CNC(C)C(=O)Nc1ccc(-c2c(C)ncnc2C)c(C#Cc2ccc3ccccc3c2)n1 (centres unmarked) [Example 173]
b: CC(N)C(=O)Nc1cccc(C#Cc2c(F)cccc2F)n1 (centres unmarked) [Example 230]
Prompt: Among a and b , which shows a numerically higher pIC50 result? Please reply using the label of the selected record.
Completion: a

---

- Target desc: XIAP BIR3 (Homo sapiens, UniProt P98170)
- Construct: covering amino acids 241 to 356; XIAP BIR3; made in house; host or cells: E. coli
- Assay info: XIAP BIR3 binding assay (DELFIA), displacement of SMAC peptide
- Assay context: GST-fusion BIR3 domain (aa 241 to 356) 10 nM, SMAC peptide 10 nM; activity of the (S)-isomers
Property: IC50 (nM)

Worked cases, answers included:
| Molecule | Target desc | Uom | Test value |
| --- | --- | --- | --- |
| CNC(C)C(=O)Nc1ccc(-c2c(C)nc3ccccn23)c(C#Cc2ccc3c(OC)nccc3c2)n1 (centres unmarked) | XIAP BIR3 (Homo sapiens, UniProt P98170) | nM | 196 |
| CNC(C)C(=O)Nc1ccc(-c2ccc3ncn(C)c(=O)c3c2)c(C#Cc2ccccc2)n1 (centres unmarked) | XIAP BIR3 (Homo sapiens, UniProt P98170) | nM | 49 |
| CNC(C)C(=O)Nc1ccc(-c2c(-c3ccncc3)nc3cc(C)ccn23)c(C#Cc2ccc(Cl)c(Cl)c2)n1 (centres unmarked) | XIAP BIR3 (Homo sapiens, UniProt P98170) | nM | 87 |
| CNC(C)C(=O)Nc1ccc(-c2c(C)nc3ccccn23)c(C#Cc2ccc(OC)c3ncccc23)n1 (centres unmarked) | XIAP BIR3 (Homo sapiens, UniProt P98170) | nM | 259 |
| CC(N)C(=O)Nc1cccc(C#Cc2cccs2)n1 (centres unmarked) | XIAP BIR3 (Homo sapiens, UniProt P98170) | nM | 895 |
| CNC(C)C(=O)Nc1ccc(-c2cncnc2)c(C#Cc2cc(F)cc(Cl)c2)n1 (centres unmarked) | XIAP BIR3 (Homo sapiens, UniProt P98170) | nM | 122 |

A: CC(N)C(=O)Nc1cccc(C#Cc2ccc(Cl)cc2)n1 (centres unmarked)
B: Cc1cccc(C#Cc2cccc(NC(=O)C(C)N)n2)c1 (centres unmarked)
C: CNC(C)C(=O)Nc1ccc(-c2cncnc2)c(C#Cc2ccc(-c3ccccn3)s2)n1 (centres unmarked)
D: CNC(C)C(=O)Nc1ccc(-c2cccc(C(=O)O)c2OC)c(C#Cc2ccccc2)n1 (centres unmarked)
Prompt: Kindly order the items shown according to IC50, from the highest value down. Provide the labels, sequenced as the question asks.
Completion: A, D, C, B
(A: 2010 nM, D: 558 nM, C: 351 nM, B: 222 nM)

P: CNC(C)C(=O)Nc1cc(OC)c(-c2cncnc2)c(C#Cc2ccccc2)n1 (centres unmarked)
Q: CNC(C)C(=O)Nc1ccc(-c2cccc(-c3ccccc3)c2)c(C#Cc2ccccc2)n1 (centres unmarked)
R: CNC(C)C(=O)Nc1ccc(-c2cncc(C)c2)c(C#Cc2ccccc2)n1 (centres unmarked)
S: CNC(C)C(=O)Nc1ccc(-c2cnn(C)c2C)c(C#Cc2ccccc2)n1 (centres unmarked)
Prompt: Sort ascending by IC50. Provide the labels, sequenced as the question asks.
Completion: S, R, P, Q
(S: 87 nM, R: 128 nM, P: 268 nM, Q: 2450 nM)

I: CNC(C)C(=O)Nc1ccc(-c2c(C)nc(N3CCOCC3)nc2C)c(C#Cc2ccc(-c3cccnc3)cc2)n1 (centres unmarked)
II: CNC(C)C(=O)Nc1cc(C(F)(F)F)c(-c2cncnc2)c(C#Cc2ccccc2)n1 (centres unmarked)
III: CNC(C)C(=O)Nc1ccc(-c2c(-c3ccncc3)nc3cc(C)ccn23)c(C#Cc2ccc3nc(C)ccc3c2)n1 (centres unmarked)
Prompt: Kindly order the items shown according to IC50, from the highest value down. Provide the labels, sequenced as the question asks.
Completion: II, I, III

---

- Target desc: XIAP BIR3 (Homo sapiens)
- Construct: covering amino acids 241 to 356; XIAP BIR3
- Assay info: XIAP BIR3 binding assay (DELFIA), displacement of SMAC peptide
- Assay context: GST-fusion BIR3 domain (aa 241 to 356) 10 nM, SMAC peptide 10 nM; activity of the (S)-isomers
pIC50: −log10 of the molar value.
Property: pIC50

| Molecule | pIC50 |
| --- | --- |
| CNC(C)C(=O)Nc1ccc(-c2c(-c3ccncc3)nc3cc(C)ccn23)c(C#Cc2ccc3nccn3c2)n1 (centres unmarked) | 7.01 |

P: CNC(C)C(=O)Nc1ccc(-c2c(C)nc3ccccn23)c(C#Cc2ccc3nn(C)cc3c2)n1 (centres unmarked)
Q: CNC(C)C(=O)Nc1ccc(-c2c(C)nc3ccccn23)c(C#Cc2ccc3nc(C)ccc3c2)n1 (centres unmarked)
R: CNC(C)C(=O)Nc1ccc(-c2cccc3ccncc23)c(C#Cc2ccc3ncccc3c2)n1 (centres unmarked)
S: CNC(C)C(=O)Nc1ccc(N(C)C(=O)c2ccccc2)c(C#Cc2ccccc2)n1 (centres unmarked)
Prompt: Sort ascending by pIC50. Provide the labels, sequenced as the question asks.
Completion: R, S, Q, P
(R: 5.89, S: 6.13, Q: 6.38, P: 6.84)

P: CNC(C)C(=O)Nc1ccc(-c2c(C)nc3ccccn23)c(C#Cc2ccc(C#N)c(Cl)c2)n1 (centres unmarked)
Q: CNC(C)C(=O)Nc1ccc(-c2c(C)nc3ccccn23)c(C#Cc2ccc(-c3ccncn3)cc2)n1 (centres unmarked)
Prompt: Among P and Q , which shows a numerically higher pIC50 result? Please reply using the label of the selected record.
Completion: P
(P: 6.91, Q: 6.51)

---

- Target desc: XIAP BIR3 (Homo sapiens)
- Construct: covering amino acids 241 to 356; XIAP BIR3; made in house; host or cells: E. coli
- Assay info: XIAP BIR3 binding assay (DELFIA), displacement of SMAC peptide
- Assay context: GST-fusion BIR3 domain (aa 241 to 356) 10 nM, SMAC peptide 10 nM; activity of the (S)-isomers
Property: IC50 (nM)

| Molecule | Uom | IC50 |
| --- | --- | --- |
| CC(N)C(=O)Nc1cccc(C#Cc2ccco2)n1 (centres unmarked) [Example 241] | nM | 3200 |

P: CNC(C)C(=O)Nc1ccc(-c2ccc(C)c(C(=O)OC)c2)c(C#Cc2ccccc2)n1 (centres unmarked) [Example 134]
Q: CC(N)C(=O)Nc1cccc(C#Cc2ccc3ccccc3c2)n1 (centres unmarked) [Example 242]
Prompt: Among P and Q , which shows a numerically higher IC50 result? Please reply using the label of the selected record.
Completion: Q
(Q: 4230 nM, P: 581 nM)

---

- Target desc: XIAP BIR3 (Homo sapiens, UniProt P98170)
- Construct: covering amino acids 241 to 356; XIAP BIR3; made in house; host or cells: E. coli
- Assay info: XIAP BIR3 binding assay (DELFIA), displacement of SMAC peptide
- Assay context: GST-fusion BIR3 domain (aa 241 to 356) 10 nM, SMAC peptide 10 nM; activity of the (S)-isomers
- Description: Biological Methods XIAP BIR3 and cIAP1 BIR3 Binding Assays (DELFIA) Peptide […]-Lys(Biotin), representing the N-terminus of mature human SMAC (SMAC peptide), was used as interaction partner in the protein-peptide interaction assay. BIR3 domains (10 nM) were incubated with SMAC peptide (10 nM) in Assay Buffer (50 mM Tris, 120 mM NaCl, 0.1% BSA, 1 mM DTT, 0.05% TritonX100) for one hour at room temperature in the presence of inhibitiory compounds. […]
pIC50: −log10 of the molar value.
Property: pIC50

Worked cases, answers included:
| Molecule | pIC50 |
| --- | --- |
| CNC(C)C(=O)Nc1ccc(-c2c(C)nc3ccccn23)c(C#Cc2ccc3nc(OC)ccc3c2)n1 (stereo not drawn) | 6.42 |
| CNC(C)C(=O)Nc1ccc(-c2c(C)nc(N(C)C)nc2C)c(C#Cc2ccc3c(ccc(=O)n3C)c2)n1 (stereo not drawn) | 5.78 |

P: CNC(C)C(=O)Nc1ccc(-c2cnc(SC)nc2)c(C#Cc2ccc3ccccc3c2)n1 (stereo not drawn)
Q: CNC(C)C(=O)Nc1ccc(-c2cc(C(=O)OC)cc(C(=O)OC)c2)c(C#Cc2ccccc2)n1 (stereo not drawn)
R: CNC(C)C(=O)Nc1ccc(-c2c(C)nc3ccccn23)c(C#Cc2ccc(F)c3ncccc23)n1 (stereo not drawn)
Prompt: Sort ascending by pIC50. Provide the labels, sequenced as the question asks.
Completion: P, R, Q
(P: 6.11, R: 6.89, Q: 7.30)

P: CC(N)C(=O)Nc1ccc(-c2cc(F)cc(C(F)(F)F)c2)c(C#Cc2ccccc2)n1 (stereo not drawn)
Q: CNC(C)C(=O)Nc1ccc(-c2c(C)nc3ccccn23)c(C#Cc2nn(C)c3ncccc23)n1 (stereo not drawn)
R: CNC(C)C(=O)Nc1ccc(-c2c(C)ccc3ncccc23)c(C#Cc2ccc3ncccc3c2)n1 (stereo not drawn)
S: CC(N)C(=O)Nc1cccc(C#Cc2ccncc2)n1 (stereo not drawn)
T: CNC(C)C(=O)Nc1ccc(-c2c(C)nc3ccccn23)c(C#Cc2ccc(-c3ccc(OC)cc3)cc2)n1 (stereo not drawn)
Prompt: Kindly order the items shown according to pIC50, from the highest value down. Provide the labels, sequenced as the question asks.
Completion: Q, R, T, P, S
(Q: 6.65, R: 6.16, T: 5.93, P: 5.69, S: 5.18)
